// reported inhibition at 0.1 µM for each item listed
Assay System: FAAH (Rattus norvegicus)
Construct: Preparation of Rat Brain Membranes Preparations (FAAH Enzyme Solution); from tissue; host or cells: rat cerebrum (brain membrane preparation)
Sequence (P97612 whole entry): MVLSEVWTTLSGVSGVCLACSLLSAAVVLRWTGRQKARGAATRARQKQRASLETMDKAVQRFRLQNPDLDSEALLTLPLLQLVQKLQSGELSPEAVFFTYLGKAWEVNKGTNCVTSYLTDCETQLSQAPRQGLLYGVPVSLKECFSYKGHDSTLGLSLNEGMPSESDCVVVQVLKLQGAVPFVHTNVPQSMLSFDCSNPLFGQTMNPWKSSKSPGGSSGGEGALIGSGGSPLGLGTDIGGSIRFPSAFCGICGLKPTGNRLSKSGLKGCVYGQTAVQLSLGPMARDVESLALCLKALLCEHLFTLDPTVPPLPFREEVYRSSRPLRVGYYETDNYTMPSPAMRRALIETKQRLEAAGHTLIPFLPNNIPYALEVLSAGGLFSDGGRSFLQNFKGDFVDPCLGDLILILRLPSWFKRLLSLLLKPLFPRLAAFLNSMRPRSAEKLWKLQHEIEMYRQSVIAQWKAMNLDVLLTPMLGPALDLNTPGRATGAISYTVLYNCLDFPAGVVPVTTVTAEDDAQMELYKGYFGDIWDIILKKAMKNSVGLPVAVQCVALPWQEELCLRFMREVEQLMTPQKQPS
Method: Determination of FAAH inhibitory activity in rat (rat brain membrane preparations, [3H]-anandamide hydrolysis)
Assay type: biochemical
Condition: at 100 nM; rat brain membrane preparations; read-out: FAAH Inhibition Inhibition Rate at 100 nM
Write the numeric value and follow it with the unit.

Worked cases, inhibition at 0.1 µM given:
Smiles Entry: CCn1c(=O)n(C(=O)N2CC(c3ccc(F)cc3)C2)c2cnc(COC)nc21
inhibition at 0.1 µM: 115%
--
Smiles Entry: CCCc1ncc2c(n1)n(C(=O)N1CC(c3ccc(F)cc3)C1)c(=O)n2C
inhibition at 0.1 µM: 94%
--
Smiles Entry: CCCn1c(=O)n(C(=O)N2CC(c3cccc(C(F)(F)F)c3)C2)c2cnc(COC)nc21
inhibition at 0.1 µM: 97%
--
Smiles Entry: CCCc1ncc2c(n1)n(C)c(=O)n2C(=O)N1CC(c2ccc(F)cc2)C1
inhibition at 0.1 µM: 97%

Lab note: next molecule to report on.
get_value(item= "CCn1c(=O)n(C(=O)N(C)C)c2nc(CCc3cccc(F)c3)ncc21" , readout=inhibition at 0.1 µM) returns 95%

The values you see were collected from patent US8735406B2.
